Provenance of the data: ChEMBL document CHEMBL1138495

Experiment: Cytostatic activity against human HuH5.2 after 3 days by MTS/PMS assay
Format: ADME, Huh-5-2
Details: HuH5.2 cells
MEASURE: CC50 at 72 h (µg/mL)
Just the number please, in µg/mL, no unit attached.

COc1cc(O)c2c(=O)c3cc(N)c(Cl)cc3n(C)c2c1 = 41
COc1ccc(C(=O)c2ccc(N3CCN(c4ccccn4)CC3)c(N)c2)c(OC)c1 = 15

The value of CC50 at 72 h measured for the compound "COc1cc(OC)c2c(=O)c3cc(N)c(N4CCN(c5ccccc5)CC4)cc3n(C)c2c1" turned out to be 34

// sample "COc1cc(OCC(C)C)c2c(=O)c3cc(N)c(N4CCN(c5ccccn5)CC4)cc3n(C)c2c1" , its CC50 at 72 h was 27

* * *

Test system: Hepatitis C virus
Experiment: Antiviral activity against HCV infected in human HuH5.2 assessed as inhibition of viral RNA synthesis after 4 days by Steady-Glo-luciferase assay
Format: functional, organism-based, Hepacivirus hominis
Details: Huh-5-2, 96 h
MEASURE: EC50 (µg/mL)

Previously resolved entries follow.
COc1cc(OC)c2c(=O)c3cc(N)c(N4CCN(c5ccccc5OC)CC4)cc3n(C)c2c1 = 16
CCn1c2cc(Cl)c(N)cc2c(=O)c2c(OC)cc(OC)cc21 = 5
COc1cc(OC)c2c(=O)c3cc(N)c(N4CCN(c5ccccn5)CC4)cc3n(C)c2c1 = 1.6

a = COc1ccc(C(=O)c2ccc(N3CCN(c4ccccn4)CC3)c(N)c2)c(O)c1
b = COc1cc(O)c2c(=O)c3cc(N)c(Cl)cc3[nH]c2c1
Prompt line: Dear colleague, could you let me know whether a or b has the lower recorded EC50? Thanks. Answer by stating the label of the chosen item.
Response line: a

* * *

System: Hepatitis C virus
Experiment: Antiviral activity against HCV infected in human HuH5.2 assessed as inhibition of viral RNA synthesis after 4 days by Steady-Glo-luciferase assay
Format: functional, organism-based, Hepacivirus hominis
Settings: Huh-5-2, 96 h
MEASURE: EC50 (µg/mL)

Please review the entries below; each comes with its answer.
COc1cc(OC)c2c(=O)c3cc(N)c(N4CCN(c5ccccc5)CC4)cc3n(C)c2c1 = 9
COc1cc2c(cc1N)c(=O)c1c(O)cc(O)cc1n2C = 5
COc1cc(O)c2c(=O)c3cc(N)c(OC)cc3n(C)c2c1 = 18
COc1cc(O)c2c(=O)c3cc(N)c(Cl)cc3n(C)c2c1 = 14
CCOc1cc(OC)cc2c1c(=O)c1cc(N)c(N3CCN(c4ccccn4)CC3)cc1n2C = 4
COc1cc(O)c2c(=O)c3cc(N)c(N4CCN(c5ccccn5)CC4)cc3n(C)c2c1 = 13

A = COc1cc(OC)c2c(=O)c3cc(N)c(Cl)cc3n(C)c2c1
B = CCn1c2cc(N3CCN(c4ccccn4)CC3)c(N)cc2c(=O)c2c(OC)cc(OC)cc21
C = COc1cccc2c1c(=O)c1cc(N)c(N3CCN(c4ccccn4)CC3)cc1n2C
Prompt line: Task field, ranking: reported EC50, descending order. A complete answer lists every label in the requested sequence.
Response line: A, C, B
(A: 20 µg/mL, C: 12.5 µg/mL, B: 4 µg/mL)

* * *

Tested on: Hepatitis C virus
Assay: Antiviral activity against HCV infected in human HuH5.2 assessed as inhibition of viral RNA synthesis after 4 days by Steady-Glo-luciferase assay
Assay type: functional, organism-based, Hepacivirus hominis
Details: Huh-5-2, 96 h
MEASURE: EC50 (µg/mL)

Cn1c2cc(N3CCN(c4ccccn4)CC3)c(N)cc2c(=O)c2c(O)cc(O)cc21 = 1.7
CCCOc1cc(OC)cc2c1c(=O)c1cc(N)c(N3CCN(c4ccccn4)CC3)cc1n2C = 17
COc1cc(OCC(=O)O)c2c(=O)c3cc(N)c(N4CCN(c5ccccn5)CC4)cc3n(C)c2c1 = 35
COc1cc(O)c2c(=O)c3cc(N)c(N4CCN(c5ccccc5)CC4)cc3n(C)c2c1 = 2.03

a = COc1cc(OC)c2c(=O)c3ccc(N4CCN(c5ccccn5)CC4)cc3n(C)c2c1
b = COc1cc(OC)c2c(=O)c3cc(N)c(N4CCN(c5nc6ccccc6o5)CC4)cc3n(C)c2c1
c = COc1cc(OC)c2c(=O)c3cc(N)c(OC)cc3n(C)c2c1
Prompt line: Ordering: ascending EC50. Write the labels in rank order as requested.
Response line: a, c, b

1 = COc1cc(OC)cc(N(C)c2ccc(N)c(N3CCN(c4ccccn4)CC3)c2)c1
2 = COc1cc2c(=O)c3cc(N)c(N4CCN(c5ccccn5)CC4)cc3n(C)c2cc1OC
3 = COc1cc(OC)c2c(=O)c3cc(N(C)C)c(N4CCN(c5ccccn5)CC4)cc3n(C)c2c1
Prompt line: Please produce an ascending ranking of these molecules based on EC50. Output the labels ranked as instructed.
Response line: 3, 1, 2
(3: 1 µg/mL, 1: 4.1 µg/mL, 2: 6 µg/mL)

a = COc1cc(OC)c2c(=O)c3cc(N)c(N4CCN(c5ccncc5)CC4)cc3n(C)c2c1
b = COc1cc(O)c2c(=O)c3cc(N)c(N4CCN(c5nc6ccccc6o5)CC4)cc3n(C)c2c1
c = Nc1cc2c(=O)c3c(O)cc(O)cc3[nH]c2cc1Cl
d = COc1ccc2c(=O)c3cc(N)c(N4CCN(c5ccccn5)CC4)cc3n(C)c2c1
Prompt line: Put these in order: smallest EC50 first, largest last. Order the labels as requested and list them.
Response line: d, a, c, b

I = Cn1c2cc(N3CCN(c4ccccc4)CC3)c(N)cc2c(=O)c2c(O)cc(O)cc21
II = COc1cc(OC)c2c(=O)c3cc(N)c(N4CCN(c5nccs5)CC4)cc3n(C)c2c1
Prompt line: Kindly compare I with II and tell me which has the lower EC50 figure. Your answer should be the label of the entry you select.
Response line: II

* * *

System: Hepatitis C virus
Experiment: Antiviral activity against HCV infected in human HuH5.2 assessed as inhibition of viral RNA synthesis after 4 days by Steady-Glo-luciferase assay
Type: functional, organism-based, Hepacivirus hominis
Conditions: Huh-5-2, 96 h
MEASURE: EC50 (µg/mL)

COc1cc(OC)c2c(=O)c3cc(N)c(Cl)cc3[nH]c2c1 = 5.7
CCn1c2cc(Cl)c(N)cc2c(=O)c2c(O)cc(OC)cc21 = 4.5
Cn1c2ccccc2c(=O)c2cc(N)c(N3CCN(c4ccccn4)CC3)cc21 = 4
